STUDY_TARGET: T1, mouse VEGF-A 164 (mouse, UniProt Q00731-2 27-190)
T1 construct: also called mouse 164
T1 sequence (looked up): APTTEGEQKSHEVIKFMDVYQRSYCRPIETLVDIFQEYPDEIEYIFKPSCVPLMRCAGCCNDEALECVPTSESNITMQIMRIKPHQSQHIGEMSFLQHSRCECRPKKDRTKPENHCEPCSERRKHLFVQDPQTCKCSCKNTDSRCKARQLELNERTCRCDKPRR
METHOD: SPR
pKd: −log10 of the molar value.
OBSERVABLE: pKd

- GCDVMQPYWGCGPDIDCLAGCVCHWYNSCG (designed binder, also called L2.9.63.12) [VEGF_CKP9.63.12]: 7.88
- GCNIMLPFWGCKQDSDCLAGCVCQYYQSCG (designed binder, also called EM54) [VEGF_CKP9.54]: 6.60
- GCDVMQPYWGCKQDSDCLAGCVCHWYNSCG (designed binder, also called EM63) [VEGF_CKP9.63]: 6.54
- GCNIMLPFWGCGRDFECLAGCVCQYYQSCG (designed binder) [VEGF_CKP9.54.90]: 8.88
